Measured IC50 of individual entries
target: UniProt P22607; assay: FGFR3 (enzymatic assay), TR-FRET; type: biochemical; settings: read-out: FGFR 3 pIC50 (converted)
Sequence (P22607 23-806): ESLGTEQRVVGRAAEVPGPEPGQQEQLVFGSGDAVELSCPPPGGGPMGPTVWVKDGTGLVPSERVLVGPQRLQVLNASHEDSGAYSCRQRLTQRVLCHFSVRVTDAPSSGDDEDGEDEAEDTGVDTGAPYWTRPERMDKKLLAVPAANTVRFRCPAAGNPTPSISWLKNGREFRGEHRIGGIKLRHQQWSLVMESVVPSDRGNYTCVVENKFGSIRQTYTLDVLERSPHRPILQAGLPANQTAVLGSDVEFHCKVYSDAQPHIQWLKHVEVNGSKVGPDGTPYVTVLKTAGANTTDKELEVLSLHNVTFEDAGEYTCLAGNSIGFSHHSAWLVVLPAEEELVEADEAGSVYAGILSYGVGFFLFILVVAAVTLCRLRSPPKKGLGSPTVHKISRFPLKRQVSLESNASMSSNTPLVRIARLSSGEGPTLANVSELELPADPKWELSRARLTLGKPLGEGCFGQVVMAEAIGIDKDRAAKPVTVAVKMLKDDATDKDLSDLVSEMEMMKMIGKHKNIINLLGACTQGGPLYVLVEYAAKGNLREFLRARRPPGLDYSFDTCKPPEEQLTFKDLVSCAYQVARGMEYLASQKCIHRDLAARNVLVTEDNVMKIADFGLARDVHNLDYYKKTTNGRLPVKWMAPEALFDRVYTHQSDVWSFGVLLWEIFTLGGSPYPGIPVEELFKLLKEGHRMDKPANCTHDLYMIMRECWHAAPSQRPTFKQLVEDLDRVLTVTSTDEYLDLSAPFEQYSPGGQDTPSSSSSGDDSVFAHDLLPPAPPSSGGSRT
Quick reminder: number only, in nM, skip the unit.

Consider the reported IC50 for these compounds:
COc1cc(OC)cc(N(CC#Cc2ncccc2OC)c2ccc3ncc(-c4cccnc4)nc3c2)c1	162
COc1cc(OC)cc(N(CCCO)c2ccc3ncc(-c4ccc(N5CCOCC5)nc4)nc3c2)c1	3.39
COc1cc(OC)cc(N(CC2CC2)c2ccc3ncc(Nc4nccs4)nc3c2)c1	191

Prompt: Please state recorded IC50 (tested on UniProt P22607) of COc1cc(OC)cc(N(CC2CC2)c2ccc3ncc(-c4ccc5c(c4)OCO5)nc3c2)c1
Completion: 209

Prompt: Please state recorded IC50 (tested on UniProt P22607) of COc1cc(OC)cc(N(CCN2CCOCC2)c2ccc3ncc(-c4ccc(N)nc4)nc3c2)c1
Completion: 6.46

Prompt: Please state recorded IC50 (tested on UniProt P22607) of COc1cc(OC)cc(N(CC2CC2)c2ccc3ncc(C(=O)Nc4cncn4C)nc3c2)c1
Completion: 2630

Prompt: Please state recorded IC50 (tested on UniProt P22607) of COc1cc(OC)cc(N(CCO)c2ccc3ncc(-c4ccnc(C(=O)NCCCCCN)c4)nc3c2)c1
Completion: 16.2

Prompt: Please state recorded IC50 (tested on UniProt P22607) of COc1cc(OC)cc(N(CC2CC2)c2ccc3ncc(-c4ccc5[nH]ccc5c4)nc3c2)c1
Completion: 417

###

Measured IC50 of individual entries
target: FGFR4 (h) (Homo sapiens, UniProt P22455); test: FGFR4 (enzymatic assay), TR-FRET; assay type: biochemical; conditions: read-out: FGFR 4 pIC50 (converted)
Sequence (P22455 22-802): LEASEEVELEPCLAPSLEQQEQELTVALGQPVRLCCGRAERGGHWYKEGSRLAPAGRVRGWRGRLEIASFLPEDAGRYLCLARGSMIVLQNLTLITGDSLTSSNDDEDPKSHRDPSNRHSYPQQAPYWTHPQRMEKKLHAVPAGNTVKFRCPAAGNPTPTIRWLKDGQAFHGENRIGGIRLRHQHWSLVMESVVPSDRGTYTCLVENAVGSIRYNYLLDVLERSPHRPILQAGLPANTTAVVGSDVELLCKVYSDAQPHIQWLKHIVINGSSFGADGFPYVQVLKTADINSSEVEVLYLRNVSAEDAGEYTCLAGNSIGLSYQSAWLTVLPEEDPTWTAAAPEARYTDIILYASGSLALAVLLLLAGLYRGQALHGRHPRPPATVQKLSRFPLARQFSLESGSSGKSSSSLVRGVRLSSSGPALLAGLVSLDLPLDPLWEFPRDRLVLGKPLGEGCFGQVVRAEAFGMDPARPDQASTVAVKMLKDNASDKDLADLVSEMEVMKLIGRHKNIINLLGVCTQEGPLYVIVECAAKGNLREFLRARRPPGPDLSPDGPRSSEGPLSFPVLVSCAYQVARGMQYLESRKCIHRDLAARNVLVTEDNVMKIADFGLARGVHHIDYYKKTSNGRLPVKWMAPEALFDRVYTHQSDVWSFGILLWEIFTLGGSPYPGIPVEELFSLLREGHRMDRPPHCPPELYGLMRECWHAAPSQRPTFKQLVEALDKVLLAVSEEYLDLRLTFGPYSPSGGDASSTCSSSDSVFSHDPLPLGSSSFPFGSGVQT
Quick reminder: number only, in nM, skip the unit.

COc1cc(OC)cc(N(CCO)c2ccc3ncc(-c4ccc(N5CCOCC5)nc4)nc3c2)c1 [Compound 19]	17.8

Now examine the next entry.
Prompt: // returns reported IC50 for input COc1cc(OC)cc(N(CCCO)c2ccc3ncc(-c4ccc(C)nc4)nc3c2)c1 [Compound 115]
Completion: 38

###

target: FGFR4 (h) (Homo sapiens, UniProt P22455); assay: FGFR4 (enzymatic assay), TR-FRET; assay type: biochemical; conditions: read-out: FGFR 4 pIC50 (converted)
Measured log10 of IC50 of individual entries
Remember, log10 of IC50, in nM.

Consider the reported log10 of IC50 for these compounds:
COc1cc(OC)cc(N(CCO)c2ccc3ncc(-c4ccnc(C(=O)NCCCCCN)c4)nc3c2)c1	2.25
COc1cc(OC)cc(N(CC2CC2)c2ccc3ncc(C#Cc4cncn4C)nc3c2)c1	2.44
COc1cc(OC)cc(N(CCNC(C)C)c2ccc3ncc(-c4ccccc4)nc3c2)c1	0.90
COc1cc(OC)cc(N(CCCNCC(F)(F)F)c2ccc3ncc(-c4ccnc(C(=O)NCCCCCO)c4)nc3c2)c1	2.35
COc1cc(OC)cc(N(CCCNCCCO)c2ccc3ncc(-c4ccnc(C(=O)NCCCCN)c4)nc3c2)c1	2.07
COc1cc(OC)cc(N(CCO)c2ccc3ncc(C4=CCN(C(=O)OC(C)(C)C)C4)nc3c2)c1	2.00
COc1cc(OC)cc(N(CCO)c2ccc3ncc(-c4ccc(OC)nc4)nc3c2)c1	1.85

Now examine the next entry.
Prompt: // returns reported log10 of IC50 for input COc1cc(OC)cc(N(CCCO)c2ccc3ncc(-c4cnc(N5CCN(C)CC5)c(C)c4)nc3c2)c1
Completion: 1.46
